assay system: T1, SUVH5 SRA domain (Arabidopsis, UniProt O82175 362-528)
T1 sequence: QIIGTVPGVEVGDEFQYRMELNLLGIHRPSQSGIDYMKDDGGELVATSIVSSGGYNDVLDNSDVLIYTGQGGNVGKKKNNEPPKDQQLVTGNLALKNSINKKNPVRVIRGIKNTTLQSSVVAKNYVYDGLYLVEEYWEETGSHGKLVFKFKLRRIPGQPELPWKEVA
test method notes: ITC; ITC: 40 mM Tris-HCl pH 7.5, 50 mM NaCl, 2 mM b-mercaptoethanol, 25 C; FP: 20 mM Tris-HCl pH 7.5, 50 mM NaCl, 1 mM DTT, 20 C; EMSA: 25 mM Tris-HCl pH 7.5, 5% glycerol, 60 mM NaCl, 10 mM MgCl2, 0.4 mg/mL BSA, 2 mM DTT
study conditions: protein: recombinant; tags: His6-SUMO, cleaved with Ulp1; chain copies: 2
property name: Kd (µM)
Please give a number only; it is taken to be in µM.

Item: hemi-5hmCG duplex (ITC) (dsDNA, 5hmC at central CG, one strand) DNA 1: CCATGCGCTGAC DNA 2: GTCAGCGCATGG | Kd: 7.6
